src = PubChem BioAssay (NCI)

Test system: MALME-3M melanoma
assay_explanation: NCI tumour cell line growth inhibition, 48 h
# GI50 per record follows
property_label: GI50

input_smiles=CCCCCCCCCCCCCCCC(=O)Nc1ccn([C@@H]2O[C@H](CO)[C@@H](O)[C@@H]2C#N)c(=O)n1 property_label=GI50 assay_value="17.3 µM"
input_smiles=O=S(=O)(Nc1ccc2ccccc2c1)N1CCCCC1 property_label=GI50 assay_value="14.5 µM"
input_smiles=O=C(NNC(=O)c1ccccc1S)c1ccccc1S property_label=GI50 assay_value="54.3 µM"

* * *

Tested on: KM12 colon
assay_explanation: NCI tumour cell line growth inhibition, 48 h
Parameter GI50: see the listing below.
property_label: GI50

compound=COc1ccc2nc3c(n2c1)C(=O)C(=O)c1ccccc1-3 assay_value="2.05 µM"
compound=C#CC#CC#CC#CC#CC#CC#CC#CC[C@@H]1OC[C@H](COC(=O)O[C@@H](C(=O)O[C@H]2C[C@@]3(O)[C@@H](OC(=O)c4ccccc4)[C@@H]4[C@]5(OC(C)=O)CO[C@@H]5C[C@H](O)[C@@]4(C)C(=O)[C@H](OC(C)=O)C(=C2C)C3(C)C)[C@@H](NC(=O)c2ccccc2)c2ccccc2)O1 assay_value="0.683 µM"
compound=CC[N-]c1nnnn1CC.[Au+].c1ccc([PH+](c2ccccc2)c2ccccc2)cc1 assay_value="2.93 µM"
compound="COC(=O)c1ccc(C2SC(C)C(=O)N2NC(=O)C(O)c2ccccc2)cc1 (configuration not stated)" assay_value="> 100 µM"
compound=O=Cc1cn(Cc2ccccc2)c2ccccc12 assay_value="53.3 µM"
compound="COC(=O)C(C)NP(=O)(OCc1ccc(Cn2cnc3c(N)ncnc32)cc1)Oc1ccccc1 (configuration not stated)" assay_value="25.2 µM"
compound=COC(=O)[C@]12CC[C@@H](C)[C@H](C)[C@@H]1C1=CC[C@@H]3[C@@]4(C)C[C@@H](OC(C)=O)[C@H](O)[C@@](C)(CO)[C@@H]4[C@H](O)C[C@@]3(C)[C@]1(C)CC2 assay_value="9.95 µM"
